# TEST_METHOD_NOTES: recombinant UMI read abundance after kanamycin selection (control-corrected) (log10(CPM+1)); higher = more efficient recombination; extreme values may be limits of the assay; sequences stand for … in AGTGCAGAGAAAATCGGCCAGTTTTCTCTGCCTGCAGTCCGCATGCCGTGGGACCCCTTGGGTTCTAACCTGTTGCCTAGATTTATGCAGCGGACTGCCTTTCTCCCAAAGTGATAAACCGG…AGGTTGGTTTCACT; site = the 11-nt donor
# recombinant UMI read abundance (log10) binned as class 0 = under 0.02, class 1 = from 0.02 up to 1, class 2 = 1 and over

Asked: Which bin should I file GGCACTCCATGGACCGGTTTTCCCGGTAATCCGTATTTGAA (site GGCACTCCTTT) under?
Given back: class 1

Asked: Which bin should I file CGGGGTACATGGACCGGTTTTCCCGGTAATCCGTATTTGTA (site CGGGGTACTTA) under?
Given back: class 2

Asked: Which bin should I file CAAGTCACATGGACCGGTTTTCCCGGTAATCCGTATTTGGG (site CCAGTCACTCC) under?
Given back: class 1

New cases:
Asked: Which bin should I file ACTTGAACATGGACCGGTTTTCCCGGTAATCCGTATTTGAG (site ACTGGAACTCT) under?
Given back: class 2

Asked: Which bin should I file AAAGCTCCATGGACCGGTTTTCCCGGTAATCCGTATTTGTA (site AAAGCTCCTTA) under?
Given back: class 2

Asked: Which bin should I file CCTTTGCCATGGACCGGTTTTCCCGGTAATCCGTATTTGTG (site CCTTTGCCTCA) under?
Given back: class 0

Asked: Which bin should I file CGTTATCCATGGACCGGTTTTCCCGGTAATCCGTATTTGCG (site CGTTATCCTCG) under?
Given back: class 1

Asked: Which bin should I file ACCCCAACATGGACCGGTTTTCCCGGTAATCCGTATTTGAC (site ACCCCAACTGT) under?
Given back: class 2

Asked: Which bin should I file AGGTTCCCATGGACCGGTTTTCCCGGTAATCCGTATTTGTG (site AGGTTCACTCA) under?
Given back: class 0

###

# TEST_METHOD_NOTES: recombinant UMI read abundance after kanamycin selection (control-corrected) (log10(CPM+1)); higher = more efficient recombination; extreme values may be limits of the assay; sequences stand for … in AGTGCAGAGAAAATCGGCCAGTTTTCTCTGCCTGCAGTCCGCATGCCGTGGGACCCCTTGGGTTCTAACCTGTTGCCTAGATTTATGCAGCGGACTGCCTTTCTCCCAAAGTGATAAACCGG…AGGTTGGTTTCACT; site = the 11-nt donor
MEASURED_QUANTITY: recombinant UMI read abundance (log10)

Asked: Supply measured recombinant UMI read abundance (log10) of ATAGTCGCATGGACCGGTTTTCCCGGTAATCCGTATTTGCG (site TTAGTCGCTCG) in your reply.
Given back: 0.00819

Asked: Supply measured recombinant UMI read abundance (log10) of CCGTTTCCATGGACCGGTTTTCCCGGTAATCCGTATTTGCT (site CCGTTTCCTAG) in your reply.
Given back: 0

New cases:
Asked: Supply measured recombinant UMI read abundance (log10) of TACGGAACATGGACCGGTTTTCCCGGTAATCCGTATTTGCT (site TACGGAACTAG) in your reply.
Given back: 0.249

Asked: Supply measured recombinant UMI read abundance (log10) of GCCAATTCATGGACCGGTTTTCCCGGTAATCCGTATTTGCC (site ACCAATTCTGG) in your reply.
Given back: 0

Asked: Supply measured recombinant UMI read abundance (log10) of CGATTGACATGGACCGGTTTTCCCGGTAATCCGTATTTGTT (site CGATAGACTAA) in your reply.
Given back: 0.0285

Asked: Supply measured recombinant UMI read abundance (log10) of CCCTTCTCATGGACCGGTTTTCCCGGTAATCCGTATTTGGG (site CGCTTCTCTCC) in your reply.
Given back: 0

Asked: Supply measured recombinant UMI read abundance (log10) of TCCATTCCATGGACCGGTTTTCCCGGTAATCCGTATTTGAT (site TCCATTCCTAT) in your reply.
Given back: 0

Asked: Supply measured recombinant UMI read abundance (log10) of CGTGTAACATGGACCGGTTTTCCCGGTAATCCGTATTTGTT (site CGTGCAACTAA) in your reply.
Given back: 0.015

Asked: Supply measured recombinant UMI read abundance (log10) of TAGCCTTCATGGACCGGTTTTCCCGGTAATCCGTATTTGGA (site TAGCCTTCTAC) in your reply.
Given back: 0.0179

###

This listing pairs sequences with measured recombinant barcode read abundance (log10).
# TEST_METHOD_NOTES: recombinant barcode read abundance after kanamycin selection (control-corrected) (log10(CPM+1)); higher = more efficient recombination; sequences stand for … in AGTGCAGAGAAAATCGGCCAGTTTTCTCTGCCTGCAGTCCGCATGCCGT…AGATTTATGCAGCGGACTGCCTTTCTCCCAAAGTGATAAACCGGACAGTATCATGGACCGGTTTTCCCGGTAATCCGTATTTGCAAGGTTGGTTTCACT; site = the 11-nt target
Quick one: just the number, no unit, thanks!

These recorded examples may help you get a feel for the data.
Asked: Supply measured recombinant barcode read abundance (log10) of CACGGGTCTTGGGTTCTAACCTGTTGCTT (site CACGGGTCTAA) in your reply.
Given back: 2.32

Asked: Supply measured recombinant barcode read abundance (log10) of TTCCACACTTGGGTTCTAACCTGTTGCGG (site TTCCAAACTCC) in your reply.
Given back: 0.116

Asked: Supply measured recombinant barcode read abundance (log10) of CGCAGCACTTGGGTTCTAACCTGTTGCCT (site AGCAGCACTAG) in your reply.
Given back: 0.067

Asked: Supply measured recombinant barcode read abundance (log10) of CCTTGTTCTTGGGTTCTAACCTGTTGCCT (site CCTTGTTCTAG) in your reply.
Given back: 0.0314

Asked: Supply measured recombinant barcode read abundance (log10) of AAGCCCTCTTGGGTTCTAACCTGTTGCTT (site AAGCCCTCTAA) in your reply.
Given back: 2.53

Asked: Supply measured recombinant barcode read abundance (log10) of CGCTTGACTTGGGTTCTAACCTGTTGCCT (site CGCTTGACTAG) in your reply.
Given back: 0.00854

Asked: Supply measured recombinant barcode read abundance (log10) of CCAGTAGCTTGGGTTCTAACCTGTTGCCT (site CCAGGAGCTAG) in your reply.
Given back: 0.193

Asked: Supply measured recombinant barcode read abundance (log10) of CTACGTCCTTGGGTTCTAACCTGTTGCTA (site CTACGTCCTCA) in your reply.
Given back: 0.0856

Asked: Supply measured recombinant barcode read abundance (log10) of TAGCATGCTTGGGTTCTAACCTGTTGCAT (site TAGCATGCTAT) in your reply.
Given back: 0.434

Asked: Supply measured recombinant barcode read abundance (log10) of TGACGTCCTTGGGTTCTAACCTGTTGCGT (site TGACGTCCTAT) in your reply.
Given back: 0.286

New cases:
Asked: Supply measured recombinant barcode read abundance (log10) of ACTCAGACTTGGGTTCTAACCTGTTGCAC (site ACTCAGACTGT) in your reply.
Given back: 1.9

Asked: Supply measured recombinant barcode read abundance (log10) of TCCCATACTTGGGTTCTAACCTGTTGCGA (site TCCCATACTTC) in your reply.
Given back: 1.57

Asked: Supply measured recombinant barcode read abundance (log10) of GGGGAATCTTGGGTTCTAACCTGTTGCAT (site GGGGACTCTGT) in your reply.
Given back: 0.079

Asked: Supply measured recombinant barcode read abundance (log10) of TCAAAGCCTTGGGTTCTAACCTGTTGCTG (site TCATAGCCTCA) in your reply.
Given back: 0.217

###

# TEST_METHOD_NOTES: recombinant barcode read abundance after kanamycin selection (control-corrected) (log10(CPM+1)); higher = more efficient recombination; sequences stand for … in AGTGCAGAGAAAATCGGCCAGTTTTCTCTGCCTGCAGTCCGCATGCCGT…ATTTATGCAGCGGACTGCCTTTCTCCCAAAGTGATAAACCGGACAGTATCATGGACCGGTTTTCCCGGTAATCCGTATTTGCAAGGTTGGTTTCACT; site = the 11-nt target
The threshold is inclusive: recombinant barcode read abundance (log10) of exactly 0.2 counts as true (1); values below receive false (0).

Here are 4 sequences together with their reported answers.
Asked: hey, is recombinant barcode read abundance (log10) for this one >= 0.2? TGATACCGTTGGGTTCTAACCTGTTGCGTAC [TGATACCCTAC_LTGcore_GT_RTGcore_GT] (site TGATACCCTAC) (LTG core: GT, RTG core: GT)
Given back: false (0)

Asked: hey, is recombinant barcode read abundance (log10) for this one >= 0.2? TAGAGGGTTTGGGTTCTAACCTGTTGCGGAG [TAGAGGGCTCC_LTGcore_TT_RTGcore_CT] (site TAGAGGGCTCC) (LTG core: TT, RTG core: CT)
Given back: true (1)

Asked: hey, is recombinant barcode read abundance (log10) for this one >= 0.2? GCGCGACCTTGGGTTCTAACCTGTTGCTTTA [GCGCGACCTAA_LTGcore_CT_RTGcore_TA] (site GCGCGACCTAA) (LTG core: CT, RTG core: TA)
Given back: true (1)

Asked: hey, is recombinant barcode read abundance (log10) for this one >= 0.2? GCGGGACAATGGGTTCTAACCTGTTGCCTAG [GCGGGACCTAG_LTGcore_AA_RTGcore_CT] (site GCGGGACCTAG) (LTG core: AA, RTG core: CT)
Given back: true (1)

Kindly consider the entry below.
Asked: hey, is recombinant barcode read abundance (log10) for this one >= 0.2? GGGCGTGTGTGGGTTCTAACCTGTTGCCTCA [GGGCGTGCTAG_LTGcore_TG_RTGcore_TG] (site GGGCGTGCTAG) (LTG core: TG, RTG core: TG)
Given back: false (0)
